FYI, the data here is from paper PMC6553477.

settings: macaque (Macaca nemestrina), in vivo, sc, concentration in LNMCs at 192 h after injection, ATV-RTV-TFV DcNP, subcutaneous, primates; 192 h
endpoint.name: concentration at 192 h (nM)
Quick reminder: number only, in nM, skip the unit.

input: May I ask what concentration at 192 h has been recorded for C[C@H](Cn1cnc2c(N)ncnc21)OCP(=O)(O)O ?
output: 130

----------
details: macaque (Macaca nemestrina), lymph node mononuclear cells (LNMC), sc, concentration in LNMCs at 24 h after injection, ATV-RTV-TFV DcNP, subcutaneous, primates; 24 h
endpoint.name: concentration at 24 h
Write the figure, then the unit, nothing else.

input: Sample COC(=O)N[C@H](C(=O)N[C@@H](Cc1ccccc1)[C@@H](O)CN(Cc1ccc(-c2ccccn2)cc1)NC(=O)[C@@H](NC(=O)OC)C(C)(C)C)C(C)(C)C — what was its concentration at 24 h?
output: 100 nM
